System: 7G8
assay.text: qHTS profiling for inhibitors of Plasmodium falciparum proliferation (AID 504749); further: nearly all actives have a fitted effect of over 60% in size
condition.set: P. falciparum in erythrocytes, SYBR Green DNA, 72 h; series mostly up to 12.8 µM
Records with an inconclusive call do not appear. The source made the active and inactive calls. The call rests on the fitted dose curve; in most records, active means well fitted inhibition curve with a large enough effect; inconclusive means small, poorly fitted or top-dose-only effect; inactive means flat fitted curve, though single readings scatter.
Hello, when you answer, please use one of the following outcomes: Yes (active), No (inactive)

Solved entries:
smiles.entry: CC[C@H](Cc1c(I)cc(I)c(N)c1I)C(=O)O
class.label: No
--
smiles.entry: CN(C)CCOC(=O)[C@@H](c1ccccc1)C1(O)CCCC1
class.label: No
--
smiles.entry: OCCN1CCN(CCC=C2c3ccccc3Sc3ccc(Cl)cc32)CC1
class.label: Yes
--
smiles.entry: Cc1cccc(C)c1NC(=O)[C@H](C)N
class.label: No

Request: For this molecule, state the assay outcome: CN[C@H]1[C@H](O)[C@@H](O[C@@H]2[C@H](O)[C@@H](O[C@H]3OC(CN)=CC[C@H]3N)[C@@H](N)C[C@H]2N)OC[C@@]1(C)O
Response: No
